# tested_target: GSK3α (Homo sapiens)
# Sequence (P49840 whole entry): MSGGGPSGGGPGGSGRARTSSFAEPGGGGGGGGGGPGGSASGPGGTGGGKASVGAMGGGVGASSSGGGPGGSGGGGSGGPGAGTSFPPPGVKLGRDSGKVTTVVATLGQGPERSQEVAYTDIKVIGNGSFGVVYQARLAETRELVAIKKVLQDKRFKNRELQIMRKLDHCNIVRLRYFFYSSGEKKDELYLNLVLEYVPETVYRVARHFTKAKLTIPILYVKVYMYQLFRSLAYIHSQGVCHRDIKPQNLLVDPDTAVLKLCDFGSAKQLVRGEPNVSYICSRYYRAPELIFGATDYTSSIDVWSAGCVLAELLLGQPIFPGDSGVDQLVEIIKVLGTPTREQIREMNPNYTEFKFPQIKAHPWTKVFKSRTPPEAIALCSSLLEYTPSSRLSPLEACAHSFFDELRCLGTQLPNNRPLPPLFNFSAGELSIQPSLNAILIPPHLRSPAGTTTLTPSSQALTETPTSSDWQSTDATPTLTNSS
measure_name: IC50 (nM)
Give the value, in units of nM, as a plain number.

The observed IC50 for CC(C)(C)Cc1[nH]nc2c1[C@](C)(c1ccccc1)C1=C(CC(C)(C)CC1=O)N2 when tested with GSK3α (Homo sapiens) stands at 215

---

Read-out record for GSK3β (Homo sapiens, UniProt P49841): IC50
Field format: number, assumed nM, no unit text.

Tested on GSK3β (Homo sapiens, UniProt P49841): CC(C)(C)Cc1[nH]nc2c1[C@](C)(c1ccccc1)C1=C(CC(C)(C)CC1=O)N2 [BRD3731] . Observed IC50: 15

Turning now to a further record.
Form field IC50 for item CC[C@@]1(c2ccccc2)C2=C(CC(C)(C)CC2=O)Nc2[nH]ncc21 [BRD0705] on GSK3β (Homo sapiens, UniProt P49841): 515
